Tested on: Vero E6
Experiment: drug sensitivity score (DSS) for viability; higher = more toxic; extreme values may be limits of the assay
Settings: 72 h
Structures can show the parent of a compound that is named as a salt.
OBSERVABLE: drug sensitivity score
Form: value (number only, do not type unit).

// known answers, use as guide
{"columns": ["COMPOUND", "OBSERVABLE", "MEASURED_RESULT"],
 "data": [
  ["COc1ccnc(C[S+]([O-])c2nc3cc(OC(F)F)ccc3[nH]2)c1OC (configuration not stated) [pantoprazole]", "drug sensitivity score", 0],
  ["CCCCCCCCCCCCCCOC(=O)c1cccnc1 [myristyl-nicotinate]", "drug sensitivity score", 0],
  ["N#C/C(=C\\c1ccc(O)c(O)c1)C(N)=O [tyrphostin-AG-99]", "drug sensitivity score", 0],
  ["Cc1cc(C(=O)NOCCO)c(Nc2ccc(I)cc2F)n(C)c1=O [AZD8330]", "drug sensitivity score", 19.2],
  ["CC[C@H]1OC(=O)[C@H](C)C(=O)[C@H](C)[C@@H](O[C@@H]2O[C@H](C)C[C@H](N(C)C)[C@H]2O)[C@](C)(OC)C[C@@H](C)C(=O)[C@H](C)[C@H]2N(CCCCn3cnc(-c4cccnc4)c3)C(=O)O[C@]12C [telithromycin]", "drug sensitivity score", 0],
  ["c1ccc(NCc2ccc(CNc3ccccn3)cc2)nc1 [WZ811]", "drug sensitivity score", 0],
  ["O=C(O[C@@H]1Cc2c(O)cc(O)cc2O[C@@H]1c1ccc(O)c(O)c1)c1cc(O)c(O)c(O)c1 [epicatechin-gallate-(-)]", "drug sensitivity score", 0],
  ["Cc1cc(C(N)=O)ccc1-n1c(CCC(=O)O)ccc1-c1ccc(-n2ccnc2)cc1 [N6022]", "drug sensitivity score", 0]
]}

(Q) Bench note: what drug sensitivity score did O=c1cc(-c2ccccc2)oc2cc(O)c(O)c(O)c12 [baicalein] show?
(A) 0

(Q) Bench note: what drug sensitivity score did C[C@@H](N[C@H]1CCCC[C@@H]1NC(=O)c1ccc(Cl)cc1)c1cccc2ccccc12 [Calhex-231] show?
(A) 0

(Q) Bench note: what drug sensitivity score did CC1(C)CNc2cc(NC(=O)c3cccnc3NCc3ccncc3)ccc21 [motesanib] show?
(A) 0

(Q) Bench note: what drug sensitivity score did CN1C2CCC1CC(OC(c1ccccc1)c1ccc(Cl)cc1)C2 (configuration not stated) [3-CPMT] show?
(A) 1.8

(Q) Bench note: what drug sensitivity score did Cc1ccc(C(=O)N(CCCN)[C@@H](c2oc3cc(Cl)ccc3c(=O)c2Cc2ccccc2)C(C)C)cc1 show?
(A) 19.7

(Q) Bench note: what drug sensitivity score did CCCCC1=NC2(CCCC2)C(=O)N1Cc1ccc(-c2ccccc2-c2nnn[nH]2)cc1 [irbesartan] show?
(A) 0

(Q) Bench note: what drug sensitivity score did COc1ccc(-c2oc3cc(OC)ccc3c2C(=O)c2ccc(C#N)cc2)cc1 show?
(A) 0

(Q) Bench note: what drug sensitivity score did COc1ccc(C2(O)CCC(N3CC[C@@H](NC(=O)CNC(=O)c4cccc(C(F)(F)F)c4)C3)CC2)cn1 (some centres not stated) show?
(A) 0

(Q) Bench note: what drug sensitivity score did CC[C@@H](c1cccc(O)c1)[C@@H](C)CN(C)C [Tapentadol (hydrochloride)] show?
(A) 0

(Q) Bench note: what drug sensitivity score did Nc1nc2cc(-c3ccc4ncc(C(=O)N5CCOCC5)n4c3)ccc2o1 [MLN1117] show?
(A) 0.5

(Q) Bench note: what drug sensitivity score did COc1ccc2cc(-c3cc(-c4cc(Cl)cc(Cl)c4)nn3[C@@H](C)c3ccc(C(=O)NCCC(=O)O)cc3)ccc2c1 [MK-0893] show?
(A) 0.6

(Q) Bench note: what drug sensitivity score did Cc1ncc(C[n+]2csc(CCO)c2C)c(N)n1 [thiamine] show?
(A) 0

(Q) Bench note: what drug sensitivity score did Cc1ccc(/N=C/N(C)/C=N/c2ccc(C)cc2C)c(C)c1 [amitraz] show?
(A) 0

(Q) Bench note: what drug sensitivity score did Cc1cccc(-c2[nH]c(C(C)(C)C)nc2-c2ccc3c(c2)OCO3)n1 show?
(A) 0.9

(Q) Bench note: what drug sensitivity score did COc1ccc(Cn2ccc3ccc(C(=O)NO)cc32)cc1 show?
(A) 3.4

(Q) Bench note: what drug sensitivity score did C[C@@H]1CN([C@H]2CC[C@](C#N)(c3ccc(F)cc3)CC2)CC[C@]1(C(=O)O)c1ccccc1 [levocabastine] show?
(A) 0

All values here come from the supplement of paper PMC13380429.
